All figures here come from patent US20210070748A1.

Target: ITK (Homo sapiens, UniProt Q08881)
Sequence (Q08881 1-620): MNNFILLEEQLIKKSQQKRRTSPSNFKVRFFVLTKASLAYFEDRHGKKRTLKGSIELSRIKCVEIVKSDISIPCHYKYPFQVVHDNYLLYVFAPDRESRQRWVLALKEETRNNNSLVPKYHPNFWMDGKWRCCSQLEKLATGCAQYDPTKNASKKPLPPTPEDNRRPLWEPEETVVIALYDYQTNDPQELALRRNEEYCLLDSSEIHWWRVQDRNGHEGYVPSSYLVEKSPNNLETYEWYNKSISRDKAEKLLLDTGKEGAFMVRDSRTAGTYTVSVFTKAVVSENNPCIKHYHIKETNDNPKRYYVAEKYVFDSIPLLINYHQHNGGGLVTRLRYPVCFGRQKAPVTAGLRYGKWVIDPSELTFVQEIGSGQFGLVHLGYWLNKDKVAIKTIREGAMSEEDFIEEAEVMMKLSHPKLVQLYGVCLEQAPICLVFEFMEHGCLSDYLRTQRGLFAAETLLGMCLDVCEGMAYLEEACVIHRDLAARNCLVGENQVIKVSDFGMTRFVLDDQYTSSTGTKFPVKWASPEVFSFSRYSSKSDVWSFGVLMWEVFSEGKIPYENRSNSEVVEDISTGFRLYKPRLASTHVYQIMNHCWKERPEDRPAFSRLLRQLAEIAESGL
Assay: Inhibition of a panel of kinases, in vitro HotSpot kinase assay: ITK
Type: biochemical
Details: D-compounds panel data; 1 μM ATP
Exercise: state measured IC50 for each of the compounds provided.

In: Query IC50 for Cc1ncc(Nc2nc(N3CCC[C@@H](NC(=O)c4ccc(C5CC5)cc4F)C3)cnc2C(N)=O)s1
Out: 1000 to 10000 nM

In: Query IC50 for C[C@@H]1[C@H](NC(=O)c2ccc3c(c2)CCC(C)(C)O3)CCCN1c1cnc(C(N)=O)c(Nc2cnn(C)c2)n1
Out: 100 to 1000 nM

In: Query IC50 for C[C@@H]1[C@H](NC(=O)c2ccc(C3CC3)cc2)CCCN1c1cnc(C(N)=O)c(Nc2cc(C3CCN(C)CC3)ns2)n1
Out: 10 to 100 nM

In: Query IC50 for Cn1cc(Nc2nc(N3CCC[C@H]4[C@@H]3CCN4C(=O)c3ccc(C4CC4)cc3)cnc2C(N)=O)cn1
Out: 1000 to 10000 nM

In: Query IC50 for Cn1cc(Nc2nc(N3CCC(NC(=O)c4ccc(C5CC5)cc4)C(O)C3)cnc2C(N)=O)cn1 (single isomer, unassigned) [Example D-29]
Out: 1000 to 10000 nM

In: Query IC50 for C[C@@H]1[C@H](NC(=O)N(C)C2CC2)CCCN1c1cnc(C(N)=O)c(Nc2cnn(C)c2)n1
Out: 100 to 1000 nM

In: Query IC50 for C[C@@H]1[C@H](NC(=O)N(C)C)CCCN1c1cnc(C(N)=O)c(Nc2cc(C3CCOCC3)ns2)n1
Out: 100 to 1000 nM

In: Query IC50 for Cn1cc(Nc2nc(N3CCC[C@@H](n4ccc5cc(C6CC6)ccc5c4=O)C3)nnc2C(N)=O)cn1
Out: 100 to 1000 nM

In: Query IC50 for C[C@@H]1[C@H](NC(=O)c2ccc(C(C)(C)O)c(F)c2)CCCN1c1cnc(C(N)=O)c(Nc2cnn(C)c2)n1
Out: 100 to 1000 nM

In: Query IC50 for CN(C)C(=O)N[C@H]1CCCN(c2cnc(C(N)=O)c(Nc3ccc(C4(C)CCN(C5CCCC5)CC4)cc3)n2)[C@@H]1CO
Out: 1000 to 10000 nM

In: Query IC50 for C[C@@H]1[C@H](NC(=O)c2ccc(OC(F)(F)F)cc2)CCCN1c1cnc(C(N)=O)c(Nc2cnn(C)c2)n1
Out: 100 to 1000 nM

In: Query IC50 for C[C@@H]1CC[C@@H](NC(=O)c2ccc(C3CC3)cc2)CN1c1cnc(C(N)=O)c(Nc2cnn(C)c2)n1
Out: > 10000 nM

In: Query IC50 for Cn1cc(Nc2nc(N3CCC[C@@H](NC(=O)c4ccc(C(C)(C)O)cc4)C3)nnc2C(N)=O)cn1
Out: 100 to 1000 nM

In: Query IC50 for C[C@@H]1[C@H](NC(=O)N(C)C)CCCN1c1cnc(C(N)=O)c(Nc2ccc(N3CCC(F)(F)CC3)cc2)n1
Out: 100 to 1000 nM
